The measured values listed here are drawn from patent US11578084B2.

molecular target: human recombinant dopamine D3 receptor (Homo sapiens (Human)); test: Test of binding inhibition for dopamine D3 receptor ([3H]-Methylspiperone SPA); details: Jump-In HEK cell membranes, 2 nM [3H]-Methylspiperone, 120 min at 25° C.; read-out: hD3_Ki
Sequence (P35462 whole entry): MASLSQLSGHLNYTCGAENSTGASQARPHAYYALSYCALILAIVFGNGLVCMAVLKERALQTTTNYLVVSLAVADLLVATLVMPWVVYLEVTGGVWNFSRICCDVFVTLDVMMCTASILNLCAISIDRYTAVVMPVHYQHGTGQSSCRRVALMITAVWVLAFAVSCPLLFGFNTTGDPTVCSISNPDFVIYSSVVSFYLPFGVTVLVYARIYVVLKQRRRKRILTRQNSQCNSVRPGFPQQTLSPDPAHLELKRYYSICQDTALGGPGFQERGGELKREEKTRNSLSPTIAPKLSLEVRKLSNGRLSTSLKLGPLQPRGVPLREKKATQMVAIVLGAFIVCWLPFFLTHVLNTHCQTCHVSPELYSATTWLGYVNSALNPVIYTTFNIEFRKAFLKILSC
A collection of compounds and their measured log10 Ki
parameter.measured: log10 Ki (log10 of the value in nM)

{"compound": "Cc1ncc(/C=C/C(=O)N[C@H]2CC[C@H](CCN3CCc4sc(C5CC(F)(F)C5)nc4C3)CC2)cn1 [I′-45]", "system.tested": "human recombinant dopamine D3 receptor (Homo sapiens (Human))", "number": -0.96}
{"compound": "Cc1cnc(CC(=O)N[C@H]2CC[C@H](CCN3CCc4nc(OCC(C)(F)F)sc4CC3)CC2)o1 [Example I-036]", "system.tested": "human recombinant dopamine D3 receptor (Homo sapiens (Human))", "number": -0.27}
{"compound": "Cc1cc(OCC(=O)N[C@H]2CC[C@H](CCN3CCc4ccc(CCC(F)(F)F)nc4CC3)CC2)no1 [I′-8]", "system.tested": "human recombinant dopamine D3 receptor (Homo sapiens (Human))", "number": -1.15}
{"compound": "Cc1nc(CC(=O)N[C@H]2CC[C@H](CCN3CCc4nc(OCC(C)(F)F)sc4CC3)OC2)no1 [Example I-008]", "system.tested": "human recombinant dopamine D3 receptor (Homo sapiens (Human))", "number": -0.02}
{"compound": "Cc1nnc(CC(=O)N[C@H]2CC[C@H](CCN3CCc4nc(O[C@@H](C)C(F)(F)F)sc4CC3)CC2)o1 [III-4]", "system.tested": "human recombinant dopamine D3 receptor (Homo sapiens (Human))", "number": -0.80}
{"compound": "CC(F)(F)COc1nc2c(s1)CCN(CC[C@H]1CC[C@H](NC(=O)c3cnn4ccccc34)CC1)CC2 [Example I-051]", "system.tested": "human recombinant dopamine D3 receptor (Homo sapiens (Human))", "number": -0.37}
{"compound": "Cc1cnc(OCC(=O)N[C@H]2CC[C@H](CCN3CCc4sc(OCC(C)(F)F)nc4C3)CC2)cn1 [Example I-046]", "system.tested": "human recombinant dopamine D3 receptor (Homo sapiens (Human))", "number": -0.47}
{"compound": "Cn1c(C(=O)N[C@H]2CC[C@](F)(CCN3CCc4nc(OCCC(F)(F)F)sc4CC3)CC2)cccc1=O [Example I-113]", "system.tested": "human recombinant dopamine D3 receptor (Homo sapiens (Human))", "number": -0.06}
{"compound": "Cn1cc2c(C(=O)NN3CCC(CCN4CCc5sc(OCC(C)(F)F)nc5C4)CC3)cccc2n1 [Example I-077]", "system.tested": "human recombinant dopamine D3 receptor (Homo sapiens (Human))", "number": -0.42}
{"compound": "Cn1c(C(=O)N[C@H]2CC[C@H](CCN3CCc4nc(OCC(C)(F)F)sc4CC3)CC2)cccc1=O [Example I-056]", "system.tested": "human recombinant dopamine D3 receptor (Homo sapiens (Human))", "number": -0.62}
